- System: XIP peptide (Xip251-270) binding
- assay.notes: small-molecule binders of XIP peptide, primary screen, biochemical, small-molecule microarray, fluorescence 635/667 nm, 0.1 µg/mL protein (AID 1182)
- setup.conditions: fluorescent protein binding, 635 nm, higher = more signal, called active from +8 up or from −8 down
# composite z-score per record follows
Response field accepts a number only; no unit should be typed.

{"compound": "COCCOC(=O)N1C(=O)[C@@]2(c3cc(C#CC4=CCCCC4)ccc31)[C@H](c1ccccc1OCCO)N1[C@H](c3ccccc3)[C@H](c3ccccc3)OC(=O)[C@H]1[C@@H]2C(=O)N1CCCCCCC1", "measured.target": "XIP peptide (Xip251-270) binding", "composite z-score": 0.549}
{"compound": "CCOC(=O)C1=C[C@@H](c2ccccc2)N(S(=O)(=O)c2ccc(C)cc2)[C@H]1c1ccccc1Cl", "measured.target": "XIP peptide (Xip251-270) binding", "composite z-score": 0.566}
{"compound": "Cc1ccc(S[C@]2(C(=O)O)CC(=O)N(Cc3ccccc3Cl)[C@@H]2c2ccc(CO)cc2I)cc1", "measured.target": "XIP peptide (Xip251-270) binding", "composite z-score": -0.62}
{"compound": "[N-]=[N+]=NCc1ccccc1C[C@@]1(C(=O)N2CCCCC2)N=C(c2ccc(OCCCO)cc2)O[C@@H]1c1ccccc1", "measured.target": "XIP peptide (Xip251-270) binding", "composite z-score": -0.194}
{"compound": "C=C(COC)/C(=C/C[C@H](OC(C)=O)c1ccc(OCCO)cc1)c1cc(C(=O)OC)ccc1OC", "measured.target": "XIP peptide (Xip251-270) binding", "composite z-score": 0.192}
{"compound": "CCOC(=O)C1=CC[C@@H](c2ccc(OCc3ccccc3)c(OC)c2)N(S(=O)(=O)c2ccc(C)cc2)[C@H]1c1ccc(SC)cc1", "measured.target": "XIP peptide (Xip251-270) binding", "composite z-score": 0.56}
{"compound": "O=C1OCCC/C=C\\[C@H]2OC34C=CCN(CCN5CCOCC5)C(=O)[C@H]3N(CCCCCCO)C(=O)[C@@H]4C12 (some centres not stated)", "measured.target": "XIP peptide (Xip251-270) binding", "composite z-score": 3.43}
{"compound": "C=C(C)[C@@H]1CC=C(C(O)C2C=CC3C(=O)N(c4ccccc4)C(=O)C3N2Nc2ccccc2F)CC1 (some centres not stated)", "measured.target": "XIP peptide (Xip251-270) binding", "composite z-score": 0.301}
{"compound": "COc1ccccc1CN1C(=O)c2ccccc2[C@](Cc2ccccc2I)(C(=O)NCC(F)(F)F)[C@@H]1c1ccc(CO)cc1", "measured.target": "XIP peptide (Xip251-270) binding", "composite z-score": 0.931}
{"compound": "CC(C)Cc1ccc(CN2CC[C@@H](NC(=O)Nc3ccccc3)C2)cc1", "measured.target": "XIP peptide (Xip251-270) binding", "composite z-score": -0.243}

# input compound: CC(=O)c1ccc(C(O)C2C=CC3C(=O)N(c4ccccc4)C(=O)C3N2Nc2ccc(C#N)cc2)cc1 (configuration not stated) ; wanted: its composite z-score
-0.305

# input compound: `C=CC[C@]1(C(=O)NCCN2CCOCC2)N=C(c2ccc(OCCCO)cc2)O[C@H]1c1ccccc1CN=[N+]=[N-]` ; wanted: its composite z-score
0.882

# input compound: `O=C1N(Cc2ccccc2)Cc2ccccc2[C@@H]2OC(c3ccc(OCCCO)cc3)=N[C@]12CCS(=O)(=O)c1ccccc1` ; wanted: its composite z-score
0.0667

# input compound: `O=C1O[C@H](c2ccccc2)[C@H](c2ccccc2)N2[C@H]1[C@@H](C(=O)Nc1nc3ccccc3s1)[C@]1(C(=O)Nc3ccc(C#CCCO)cc31)[C@H]2c1ccc(O)cc1` ; wanted: its composite z-score
0.25

# input compound: C=CCC(OC(C)=O)[C@@H]1[C@@H](N(Cc2cccc3ccccc23)C(=O)Cc2ccc(F)cc2)c2cc(OCCCO)ccc2N1C(=O)c1ccc2ccccc2n1 (some centres not stated) ; wanted: its composite z-score
-0.533

# input compound: `COc1ccc(-c2nc(-c3ccccc3)c3c(c2C)CO[Si]3(C(C)C)C(C)C)cn1` ; wanted: its composite z-score
-0.447

# input compound: `COC(=O)[C@@]1(Cc2ccc(OC)cc2)[C@H]2c3cc(C(=O)N(C)C)n(Cc4ccc(Cl)c(C(F)(F)F)c4)c3C[C@H]2CN1C(=O)c1ccccc1` ; wanted: its composite z-score
-0.0177

# input compound: `CCOC(=O)[C@H]1[C@@H]2C(=O)N3CCC[C@H]3[C@H](O[Si](C(C)C)(C(C)C)C(C)C)[C@H]2C=C2CCN(S(=O)(=O)c3ccc(C)cc3)C[C@H]21` ; wanted: its composite z-score
0.0514

# input compound: `COCCOC(=O)N1C(=O)[C@@]2(c3cc(C#CC4=CCCCC4)ccc31)[C@H](c1ccc(OCCO)cc1)N1[C@H](c3ccccc3)[C@H](c3ccccc3)OC(=O)[C@H]1[C@@H]2C(=O)N1CCN(c2ncccn2)CC1` ; wanted: its composite z-score
0.975

# input compound: `CC(C)(C)OC(=O)CC[C@@]1(C(=O)NCc2ccccc2)N=C(c2ccc(OCCCO)cc2)O[C@@H]1c1ccccc1N=[N+]=[N-]` ; wanted: its composite z-score
-0.208

# input compound: CN1C(=O)C2C=CC(C(O)COCc3ccccc3)N(N(c3ccccc3)c3ccccc3)C2C1=O (configuration not stated) ; wanted: its composite z-score
0.441

# input compound: `CC1=C([C@H](O)CCc2ccccc2)[C@H](CO)[C@@H]2C(=O)N(C)C(=O)[C@@H]2C1` ; wanted: its composite z-score
-0.0688

# input compound: `O[C@@H](Cc1ccccc1)[C@@H](/C=C/C1CC1)N(CC#Cc1ccccc1)Cc1cccc(Cl)c1` ; wanted: its composite z-score
-0.16

# input compound: `C=CCOC(=O)[C@H]1[C@@H]2C(=O)O[C@@H](c3ccccc3)[C@@H](c3ccccc3)N2[C@@H](c2ccc(OCCOC(=O)[C@@H]3C[C@@H]4C(=O)N5CCC[C@H]5C(=O)N4[C@@H]3c3ccc(O)cc3)cc2)[C@]12C(=O)Nc1ccc(I)cc12` ; wanted: its composite z-score
0.773

# input compound: `NC(=O)NCC#Cc1ccc2c(c1)[C@]1(C(=O)N2)[C@H](C(=O)NC[C@H](O)c2ccccc2)[C@H]2C(=O)O[C@H](c3ccccc3)[C@H](c3ccccc3)N2[C@@H]1c1ccc(OCCO)cc1` ; wanted: its composite z-score
0.869

# input compound: CC(C)(C)OC(=O)CC[C@]1(C(=O)NCC(O)CO)N=C(c2ccc(OCCCO)cc2)O[C@H]1c1ccccc1 (some centres not stated) ; wanted: its composite z-score
0.0294

# input compound: `CN(C)CCCCNC(=O)[C@@H]1C[C@@H]2C(=O)N[C@@H](Cc3ccccc3)C(=O)N2[C@@H]1c1cccc(OCCO)c1` ; wanted: its composite z-score
0.096

###

- measured.target: Torsin-1A-interacting protein 2 (Homo sapiens)
- assay.notes: LULL1 binders on small-molecule microarray, primary screen, cell lysate, human LULL1 lysate, 635/667 nm fluorescence (AID 1092);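 note: probe is lysate of COS7 cells overexpressing human LULL1; score merges per-feature 667 nm fluorescence with signal-to-noise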
- setup.conditions: hLULL1 lysate binding, 635 nm fluorescence, higher = more signal
quantity: composite z-score
Response field accepts a number only; no unit should be typed.

{"molecule": "COC(=O)C(CC#Cc1ccc2c(c1)[C@]1(C(=O)N2)[C@H](C(=O)N2CCN(c3ncccn3)CC2)[C@H]2C(=O)O[C@H](c3ccccc3)[C@H](c3ccccc3)N2[C@@H]1c1ccc(OCCO)cc1)C(=O)OC", "measured.target": "Torsin-1A-interacting protein 2 (Homo sapiens)", "quantity": "composite z-score", "val": 2.76}

# input molecule: `C=CCOC(=O)[C@H]1[C@@H]2C(=O)O[C@@H](c3ccccc3)[C@@H](c3ccccc3)N2[C@@H](c2ccc(OCCOC(=O)[C@@H]3C[C@@H]4C(=O)N5CCC[C@H]5C(=O)N4[C@@H]3c3ccc(O)cc3)cc2)[C@]12C(=O)Nc1ccc(I)cc12` ; wanted: its composite z-score
1.03

# input molecule: `C=C(/C(=C/C[C@H](OC(C)=O)c1cccc(OCCO)c1)c1cnc2ccccc2c1)C(C)C` ; wanted: its composite z-score
1.03

# input molecule: O=C1NC(=O)C2C1C=CC(C(O)c1cccc3ccccc13)N2Nc1ccc(Cl)cc1Cl (configuration not stated) ; wanted: its composite z-score
3.04

# input molecule: CC(C)(C)N1CC=CC23O[C@@H]4C=CCCOC(=O)C4[C@H]2C(=O)N(CCO)[C@@H]3C1=O (some centres not stated) ; wanted: its composite z-score
-1.67

# input molecule: `COCCOC(=O)N1C(=O)[C@@]2(c3cc(C#CC4=CCCCC4)ccc31)[C@H](C(N)=O)[C@H]1C(=O)O[C@H](c3ccccc3)[C@H](c3ccccc3)N1[C@@H]2c1ccccc1OCCO` ; wanted: its composite z-score
2.75

# input molecule: `O=C1O[C@H](c2ccccc2)[C@H](c2ccccc2)N2[C@H]1[C@@H](C(=O)Nc1nc3ccccc3s1)[C@]1(C(=O)Nc3ccc(C#CC4(O)CCCCCC4)cc31)[C@H]2c1ccccc1OCCO` ; wanted: its composite z-score
3.08

# input molecule: `O[C@@H](Cc1ccccc1)[C@@H](/C=C/C1CC1)N(CC#Cc1ccccc1)Cc1cccc(Cl)c1` ; wanted: its composite z-score
-0.0561

# input molecule: `COC(=O)[C@@]1(Cc2ccccc2)[C@H]2c3cc(C(=O)N(C)C)n(CCc4ccc(O)c(OC)c4)c3C[C@H]2CN1C(=O)c1ccccc1` ; wanted: its composite z-score
0.47

# input molecule: `O=C(N1CCCCC1)[C@@]1(CCS(=O)(=O)c2ccccc2)COC(c2ccc(OCCCO)cc2)=N1` ; wanted: its composite z-score
2.84

# input molecule: `CCOC(=O)C[C@H]1[C@H](OC(=O)c2ccc(C(=O)c3ccccc3)cc2)[C@@H](NC(=O)Cc2ccc(OC)cc2)c2cc(OCCCO)ccc2N1C(=O)c1ccccc1` ; wanted: its composite z-score
1.19

# input molecule: `CCOC(=O)C[C@H]1[C@H](OC(=O)Cc2ccc3c(c2)OCO3)[C@@H](NC(=O)Cc2ccc(OC)cc2)c2cc(OCCCO)ccc2N1C(=O)c1ccc2ccccc2n1` ; wanted: its composite z-score
0.708

# input molecule: `Cc1ccc(S[C@]2(C(=O)O)CC(=O)N(C3Cc4ccccc4C3)[C@@H]2c2ccc(CO)cc2)cc1` ; wanted: its composite z-score
2.98

# input molecule: `NC(N)=NCCCn1cc(CNC(=O)[C@@H](N)Cc2ccccc2)nn1` ; wanted: its composite z-score
1.14

# input molecule: CC(C)C(CO)N1C(=O)[C@@H]2C3C(=O)OCCC/C=C\[C@H]3OC23C=CCN(C(C)(C)C)C(=O)[C@@H]13 (some centres not stated) ; wanted: its composite z-score
0.895

# input molecule: `COc1ccccc1CN1C(=O)c2ccccc2[C@@]2(Cc3ccccc3N(CC(F)(F)F)C2=O)[C@@H]1c1ccc(CO)cc1` ; wanted: its composite z-score
0.104

# input molecule: N#Cc1ccc(C(O)C2C=CC3C(=O)N(c4ccccc4)C(=O)C3N2Nc2ccccc2)cc1 (configuration not stated) ; wanted: its composite z-score
2.62

# input molecule: `COc1ccc([Si](C)(C)[C@H]2[C@H](CCn3cc([C@H](O)c4ccccc4)nn3)O[C@@]3(C(=O)N(Cc4ccc(N5C(=O)c6cccc7cccc5c67)cc4)c4ccccc43)[C@@H]2C)cc1` ; wanted: its composite z-score
0.277

# input molecule: `CCOC(=O)C1=CC[C@@H](c2ccc(OCc3ccccc3)c(OC)c2)N(S(=O)(=O)c2ccc(C)cc2)[C@H]1c1ccc(SC)cc1` ; wanted: its composite z-score
3.21

# input molecule: `CCCC[C@@H](O)C1=C(COc2ccccc2)C[C@H]2C(=O)N(C)C(=O)[C@H]2[C@H]1CO` ; wanted: its composite z-score
-0.988

# input molecule: `CCCC[C@@H]1C[C@H]1[C@@H](NC(=O)Cc1ccccc1)c1ccc(-c2ccccc2)cc1` ; wanted: its composite z-score
2.94

# input molecule: `CC(=O)NCCCC[C@@H]1NC(=O)[C@H]2C[C@@H](C(=O)NCCCC[N+](C)(C)C)[C@@H](c3cccc(OCCO)c3)N2C1=O` ; wanted: its composite z-score
1.97

# input molecule: `COc1ccc(NC(=O)O[C@H]2[C@H](OC(=O)Nc3ccccc3)[C@H](OC(=O)Nc3ccccc3)[C@@H](OC)O[C@@H]2CO)cc1` ; wanted: its composite z-score
2.66
